- System: Pseudomonas aeruginosa
- measurement-description: Antibacterial activity against Pseudomonas aeruginosa ATCC 27853 by micro dilution/broth titre method
- Format: functional
Exercise: state measured MIC for each of the compounds provided.
Supply the numeric figure in µg/mL, leaving out any unit text.

Challenge: Please give the measured MIC for this compound: `O=C(CSc1nnc(-c2cccc([N+](=O)[O-])c2)o1)Nc1ccc(C(=O)/C=C\c2ccc(O)cc2)cc1`
Response given: 31.2

Challenge: Quick check: MIC of `COc1cc(/C=C\C(=O)c2ccc(NC(=O)CSc3nnc(-c4cccc([N+](=O)[O-])c4)o3)cc2)ccc1O` ?
Response given: 62.5

Challenge: What does the data say about its MIC? Entry: `O=C(CSc1nnc(-c2cccc([N+](=O)[O-])c2)o1)Nc1ccc(C(=O)/C=C\c2ccc(Cl)cc2)cc1`
Response given: 31.2

Challenge: Query (compound): `COc1ccc(OC)c(/C=C\C(=O)c2ccc(NC(=O)CSc3nnc(-c4cccc([N+](=O)[O-])c4)o3)cc2)c1` ; field requested: MIC
Response given: 62.5

Challenge: For the compound `O=C(CSc1nnc(-c2cccc([N+](=O)[O-])c2)o1)Nc1ccc(C(=O)/C=C\c2ccccc2)cc1` , what MIC is on record?
Response given: 62.5

Challenge: May I ask what MIC has been recorded for `CN(C)c1ccc(/C=C\C(=O)c2ccc(NC(=O)CSc3nnc(-c4cccc([N+](=O)[O-])c4)o3)cc2)cc1` ?
Response given: 62.5

Challenge: What value of MIC has been recorded for this entry: `COc1cc(/C=C\C(=O)c2ccc(NC(=O)CSc3nnc(-c4cccc([N+](=O)[O-])c4)o3)cc2)cc(OC)c1OC`
Response given: 62.5

Challenge: Consider the compound `O=C(O)c1cn(C2CC2)c2cc(N3CCNCC3)c(F)cc2c1=O` and give its measured MIC.
Response given: 125
